assay info: Population PK analysis of pemigatinib in patients with advanced malignancies
Type: in vivo, human
measurement context: read-out: predicted Cmax steady state (Cmax,ss); female patients
property measured: Cmax (nM)
Give bare numbers, in nM.

Give the measured Cmax of CCN1C(=O)N(c2c(F)c(OC)cc(OC)c2F)Cc2cnc3[nH]c(CN4CCOCC4)cc3c21 [pemigatinib, Pemigatinib] .
198
